tested on: SH-SY5Y; experiment: Neuroprotective against IFNgamma/LPS stimulated THP1 condition medium-induced neurotoxicity in human SH-SY5Y cells assessed as NO production per 10^6 cells at 10 uM for 1 hr followed by addition of THP1 conditioned medium by griess assay (reference value: 3.75 +/- 0.14 micromol/L); assay type: functional
Where a SMILES comes first, the peptide text is derived from it. [ ]: non-standard residue; d: D form. αMeP = C[C@@]1(C(=O)O)CCCN1
Would you kindly list Activity for each of these compounds?
Kindly provide the numeric value in µmol/L only, without the unit symbol.

Dear colleague, I am looking for the recorded Activity of the following compound: N=C(N)NCCC[C@H](NC(=O)[C@@H]1CCCN1C(=O)CN)C(=O)O (H-Gly-Pro-Arg-OH)
3.05

Dear colleague, I am looking for the recorded Activity of the following compound: C[C@@]1(C(=O)N[C@@H](CCCCN)C(=O)O)CCCN1C(=O)CN (H-Gly-[αMeP]-Lys-OH)
2.98

Dear colleague, I am looking for the recorded Activity of the following compound: C[C@@]1(C(=O)N[C@@H](CCCNC(=N)N)C(=O)O)CCCN1C(=O)CN (H-Gly-[αMeP]-Arg-OH)
3.57

Dear colleague, I am looking for the recorded Activity of the following compound: C[C@@]1(C(=O)N[C@@H](Cc2cnc[nH]2)C(=O)O)CCCN1C(=O)CN (H-Gly-[αMeP]-His-OH)
2.96
